These entries and their values trace back to BindingDB's records for doi:10.1021/jm051296s.

- Assayed system: Integrin alpha-V/beta-3 (Homo sapiens, UniProt P05106+P06756)
- Sequence (P05106 27-788 limits assumed): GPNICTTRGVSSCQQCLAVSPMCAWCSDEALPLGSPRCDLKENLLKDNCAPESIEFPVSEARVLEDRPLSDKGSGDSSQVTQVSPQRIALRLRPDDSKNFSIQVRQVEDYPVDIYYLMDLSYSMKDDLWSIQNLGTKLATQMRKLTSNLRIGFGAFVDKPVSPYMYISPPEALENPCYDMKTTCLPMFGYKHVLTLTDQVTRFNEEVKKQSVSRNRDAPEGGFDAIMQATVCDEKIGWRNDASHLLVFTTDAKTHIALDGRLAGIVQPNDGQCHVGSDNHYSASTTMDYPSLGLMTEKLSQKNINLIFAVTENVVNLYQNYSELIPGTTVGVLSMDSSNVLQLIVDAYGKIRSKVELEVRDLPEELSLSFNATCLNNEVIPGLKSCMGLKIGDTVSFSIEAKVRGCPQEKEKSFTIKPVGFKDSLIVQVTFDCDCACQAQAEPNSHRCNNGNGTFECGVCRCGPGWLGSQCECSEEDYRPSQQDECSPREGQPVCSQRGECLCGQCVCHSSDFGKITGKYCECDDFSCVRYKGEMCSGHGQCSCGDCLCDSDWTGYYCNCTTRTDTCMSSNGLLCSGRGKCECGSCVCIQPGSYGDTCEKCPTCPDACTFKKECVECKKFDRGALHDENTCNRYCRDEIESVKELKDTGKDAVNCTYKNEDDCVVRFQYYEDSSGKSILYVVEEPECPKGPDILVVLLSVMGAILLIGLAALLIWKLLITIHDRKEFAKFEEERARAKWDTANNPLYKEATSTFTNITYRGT
- Sequence (P06756 31-889 limits assumed): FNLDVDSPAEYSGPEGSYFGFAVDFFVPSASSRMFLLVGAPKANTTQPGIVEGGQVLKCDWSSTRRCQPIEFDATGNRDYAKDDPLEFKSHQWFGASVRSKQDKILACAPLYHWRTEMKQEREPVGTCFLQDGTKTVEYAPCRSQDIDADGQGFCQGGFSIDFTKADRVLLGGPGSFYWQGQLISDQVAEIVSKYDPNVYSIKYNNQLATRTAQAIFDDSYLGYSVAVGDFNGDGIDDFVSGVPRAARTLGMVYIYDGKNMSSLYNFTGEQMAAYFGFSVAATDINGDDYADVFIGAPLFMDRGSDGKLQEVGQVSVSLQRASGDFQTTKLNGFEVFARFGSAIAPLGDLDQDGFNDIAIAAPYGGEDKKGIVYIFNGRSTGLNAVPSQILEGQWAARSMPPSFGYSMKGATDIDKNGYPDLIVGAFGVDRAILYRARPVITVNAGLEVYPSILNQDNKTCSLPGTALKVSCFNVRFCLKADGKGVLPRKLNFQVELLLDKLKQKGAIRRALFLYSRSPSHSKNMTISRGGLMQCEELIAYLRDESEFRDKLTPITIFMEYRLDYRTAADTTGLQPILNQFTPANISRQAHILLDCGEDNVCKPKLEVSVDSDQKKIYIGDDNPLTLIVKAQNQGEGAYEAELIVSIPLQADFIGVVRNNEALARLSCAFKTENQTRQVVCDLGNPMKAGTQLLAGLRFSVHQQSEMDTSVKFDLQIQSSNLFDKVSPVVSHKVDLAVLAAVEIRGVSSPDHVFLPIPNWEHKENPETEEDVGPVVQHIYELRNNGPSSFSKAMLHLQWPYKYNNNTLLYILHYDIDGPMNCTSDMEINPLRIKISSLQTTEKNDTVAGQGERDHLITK
- Sequence (P06756 891-1048 limits assumed): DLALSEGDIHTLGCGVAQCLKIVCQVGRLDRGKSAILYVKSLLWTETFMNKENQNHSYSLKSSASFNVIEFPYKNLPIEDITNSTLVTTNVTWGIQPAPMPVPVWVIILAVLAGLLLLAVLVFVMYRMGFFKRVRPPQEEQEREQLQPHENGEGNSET
- Experimental details: Inhibition of [125I]echistatin binding to integrin alphaVbeta3 receptor

- Structure smiles: "O=C(O)c1cccc(-c2ccc(CN=Nc3nc4nonc4nc3Nc3ccc(F)cc3)o2)c1"
  IC50: "> 1000 nM"
